Reference for the values: the supplement of paper PMC11208160

# measurement-description: recombinant UMI read abundance after kanamycin selection (control-corrected) (log10(CPM+1)); higher = more efficient recombination; extreme values may be limits of the assay; sequences stand for … in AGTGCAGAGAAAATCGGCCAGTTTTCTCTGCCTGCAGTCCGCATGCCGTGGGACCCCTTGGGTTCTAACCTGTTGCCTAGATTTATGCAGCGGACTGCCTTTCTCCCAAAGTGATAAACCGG…AGGTTGGTTTCACT; site = the 11-nt donor
property-label: recombinant UMI read abundance (log10)

seq-string: TCGATGTCATGGACCGGTTTTCCCGGTAATCCGTATTTGTG (site TCGATGTCTCA)
property-label: recombinant UMI read abundance (log10)
quantitative-readout: 0.868

seq-string: ATCATTTCATGGACCGGTTTTCCCGGTAATCCGTATTTGCA (site ATCATTTCTTG)
property-label: recombinant UMI read abundance (log10)
quantitative-readout: 1.73

seq-string: AGTCGGTCATGGACCGGTTTTCCCGGTAATCCGTATTTGGC (site AGTCGGTCTGC)
property-label: recombinant UMI read abundance (log10)
quantitative-readout: 0

seq-string: AATGGCCCATGGACCGGTTTTCCCGGTAATCCGTATTTGTA (site AATGGCCCTTA)
property-label: recombinant UMI read abundance (log10)
quantitative-readout: 0.0128

seq-string: TCGGATCCATGGACCGGTTTTCCCGGTAATCCGTATTTGTC (site TCGGATCCTGA)
property-label: recombinant UMI read abundance (log10)
quantitative-readout: 0.795

---

# measurement-description: recombinant barcode read abundance after kanamycin selection (control-corrected) (log10(CPM+1)); higher = more efficient recombination; sequences stand for … in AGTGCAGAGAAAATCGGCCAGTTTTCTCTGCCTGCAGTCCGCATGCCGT…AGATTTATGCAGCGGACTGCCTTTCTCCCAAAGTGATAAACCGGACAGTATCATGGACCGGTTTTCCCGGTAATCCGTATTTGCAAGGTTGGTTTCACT; site = the 11-nt target
The recorded recombinant barcode read abundance (log10) of each item maps onto one of these classes: lower level (below 0.5), middle level (0.5 to below 0.8), upper level (0.8 or more)

seq-string: TTGCCGACTTGGGTTCTAACCTGTTGCCA (site TTGACGACTTG)
class-name: middle level

seq-string: ACCATACCTTGGGTTCTAACCTGTTGCAT (site ACCATACCTAT)
class-name: lower level

seq-string: GACGTAACTTGGGTTCTAACCTGTTGCAG (site AGGAAGGCTTG)
class-name: lower level

seq-string: GTAGTAGCTTGGGTTCTAACCTGTTGCCT (site GTAGTAGCTAG)
class-name: upper level

seq-string: TATAATACTTGGGTTCTAACCTGTTGCGA (site TATAATACTTC)
class-name: lower level

seq-string: CTACATTCTTGGGTTCTAACCTGTTGCGT (site CTACATTCTAC)
class-name: upper level

seq-string: AGATCGGCTTGGGTTCTAACCTGTTGCCT (site AGATCGGCTAG)
class-name: lower level

seq-string: CTCCATCCTTGGGTTCTAACCTGTTGCCT (site CTCCATCCTAG)
class-name: upper level

seq-string: CTGTGCCCTTGGGTTCTAACCTGTTGCCT (site CTGTGCCCTAG)
class-name: middle level

---

Collected recombinant UMI read abundance (log10) values appear next to each entry.
# measurement-description: recombinant UMI read abundance after kanamycin selection (control-corrected) (log10(CPM+1)); higher = more efficient recombination; extreme values may be limits of the assay; sequences stand for … in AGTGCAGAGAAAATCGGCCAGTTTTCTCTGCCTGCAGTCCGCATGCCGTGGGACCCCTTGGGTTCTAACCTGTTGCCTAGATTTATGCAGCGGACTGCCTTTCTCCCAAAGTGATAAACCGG…AGGTTGGTTTCACT; site = the 11-nt donor

seq-string: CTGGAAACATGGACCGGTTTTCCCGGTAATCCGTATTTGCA (site CTGGAAACTAG)
recombinant UMI read abundance (log10): 0
--
seq-string: CGATCGGCATGGACCGGTTTTCCCGGTAATCCGTATTTGAA (site CGATCGGCTTT)
recombinant UMI read abundance (log10): 1.25
--
seq-string: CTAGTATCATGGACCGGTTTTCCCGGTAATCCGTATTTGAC (site CTGGCATCTGT)
recombinant UMI read abundance (log10): 0
--
seq-string: TCATGAGCATGGACCGGTTTTCCCGGTAATCCGTATTTGGG (site TGATGAGCTCC)
recombinant UMI read abundance (log10): 0.00797
--
seq-string: CCCCACACATGGACCGGTTTTCCCGGTAATCCGTATTTGTC (site CCCCACACTCA)
recombinant UMI read abundance (log10): 0.235
--
seq-string: CAATACCCATGGACCGGTTTTCCCGGTAATCCGTATTTGCT (site CAATGCCCTAG)
recombinant UMI read abundance (log10): 0.00435
--
seq-string: CGAGCATCATGGACCGGTTTTCCCGGTAATCCGTATTTGTT (site CGATCATCTAG)
recombinant UMI read abundance (log10): 0
--
seq-string: CTACTAACATGGACCGGTTTTCCCGGTAATCCGTATTTGGC (site CTACTAACTTC)
recombinant UMI read abundance (log10): 1.31
--
seq-string: GTTAGAGCATGGACCGGTTTTCCCGGTAATCCGTATTTGCA (site GTTTGAGCTTG)
recombinant UMI read abundance (log10): 1.08

---

# measurement-description: recombinant barcode read abundance after kanamycin selection (control-corrected) (log10(CPM+1)); higher = more efficient recombination; sequences stand for … in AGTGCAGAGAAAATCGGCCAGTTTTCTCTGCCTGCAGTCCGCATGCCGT…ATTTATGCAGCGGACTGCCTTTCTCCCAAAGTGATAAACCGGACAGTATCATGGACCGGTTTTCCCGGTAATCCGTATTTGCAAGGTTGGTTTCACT; site = the 11-nt target
Collected recombinant barcode read abundance (log10) values appear next to each entry.
property-label: recombinant barcode read abundance (log10)

seq-string: GGCTCCCCTTGGGTTCTAACCTGTTGCGGTT [GGCTCCCCTCC_LTGcore_CT_RTGcore_AA] (site GGCTCCCCTCC) (LTG core: CT, RTG core: AA)
quantitative-readout: 0.285
//
seq-string: GGCTCCCTGTGGGTTCTAACCTGTTGCGGCA [GGCTCCCCTCC_LTGcore_TG_RTGcore_TG] (site GGCTCCCCTCC) (LTG core: TG, RTG core: TG)
quantitative-readout: 0.234
//
seq-string: GCGGGACACTGGGTTCTAACCTGTTGCCTGT [GCGGGACCTAG_LTGcore_AC_RTGcore_AC] (site GCGGGACCTAG) (LTG core: AC, RTG core: AC)
quantitative-readout: 0
//
seq-string: AAACATGTATGGGTTCTAACCTGTTGCCTAG [AAACATGCTAG_LTGcore_TA_RTGcore_CT] (site AAACATGCTAG) (LTG core: TA, RTG core: CT)
quantitative-readout: 0.0615
//
seq-string: TGTATTCGTTGGGTTCTAACCTGTTGCCTAC [TGTATTCCTAG_LTGcore_GT_RTGcore_GT] (site TGTATTCCTAG) (LTG core: GT, RTG core: GT)
quantitative-readout: 0.00818

---

# measurement-description: recombinant barcode read abundance after kanamycin selection (control-corrected) (log10(CPM+1)); higher = more efficient recombination; sequences stand for … in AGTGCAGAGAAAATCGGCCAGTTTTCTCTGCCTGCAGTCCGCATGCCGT…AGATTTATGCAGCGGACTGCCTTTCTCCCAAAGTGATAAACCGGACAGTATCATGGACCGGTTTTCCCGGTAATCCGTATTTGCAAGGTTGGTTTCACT; site = the 11-nt target
property-label: recombinant barcode read abundance (log10)

seq-string: CGAATCACTTGGGTTCTAACCTGTTGCCT (site CGAATCGCTAG)
result: 0.182
//
seq-string: GTCAGGGCTTGGGTTCTAACCTGTTGCCT (site GTCATGGCTAG)
result: 0.197
//
seq-string: AGTGCTCCTTGGGTTCTAACCTGTTGCGG (site AGTGCTCCTCC)
result: 0.18
//
seq-string: TGAGGGTCTTGGGTTCTAACCTGTTGCTT (site CGAGGGTCTAA)
result: 0.136
//
seq-string: AACCTTACTTGGGTTCTAACCTGTTGCCT (site AACCTTACTAG)
result: 0.631

---

Collected recombinant UMI read abundance (log10) values appear next to each entry.
# measurement-description: recombinant UMI read abundance after kanamycin selection (control-corrected) (log10(CPM+1)); higher = more efficient recombination; extreme values may be limits of the assay; sequences stand for … in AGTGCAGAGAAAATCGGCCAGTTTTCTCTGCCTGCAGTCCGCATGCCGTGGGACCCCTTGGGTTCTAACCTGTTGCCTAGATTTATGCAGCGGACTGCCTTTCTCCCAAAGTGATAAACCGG…AGGTTGGTTTCACT; site = the 11-nt donor

seq-string: CCAGAGACATGGACCGGTTTTCCCGGTAATCCGTATTTGCG (site GCAGAGACTCG)
recombinant UMI read abundance (log10): 0.0188
//
seq-string: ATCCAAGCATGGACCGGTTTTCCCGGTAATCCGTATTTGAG (site CTCCAAGCTCT)
recombinant UMI read abundance (log10): 0.656
//
seq-string: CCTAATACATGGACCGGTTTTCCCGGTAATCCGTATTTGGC (site GCTAATACTGC)
recombinant UMI read abundance (log10): 0
//
seq-string: CGGGAAGCATGGACCGGTTTTCCCGGTAATCCGTATTTGAT (site CGGGAATCTAT)
recombinant UMI read abundance (log10): 1.85
//
seq-string: ACCCGCTCATGGACCGGTTTTCCCGGTAATCCGTATTTGTC (site ACCCGCTCTGA)
recombinant UMI read abundance (log10): 2.76
//
seq-string: ACGGGCGCATGGACCGGTTTTCCCGGTAATCCGTATTTGTT (site ACGGGCGCTAA)
recombinant UMI read abundance (log10): 1.39
//
seq-string: TCAGTATCATGGACCGGTTTTCCCGGTAATCCGTATTTGTA (site ACAGTATCTTG)
recombinant UMI read abundance (log10): 0.377
//
seq-string: TAATTAACATGGACCGGTTTTCCCGGTAATCCGTATTTGGT (site TAATTAACTAC)
recombinant UMI read abundance (log10): 0.813
//
seq-string: ACGCCACCATGGACCGGTTTTCCCGGTAATCCGTATTTGGG (site ACGCCACCTCC)
recombinant UMI read abundance (log10): 0.011
